Item-by-item account of IC50
- Tested on: MYB mRNA
- Assay name: RT-qPCR splicing assay, MYB canonical (CJ) and alternative (AJ) junction mRNA
- Format: cell-based, human
- Condition details: canonical junction (CJ) mRNA, RT-qPCR panel, Table 4A; read-out: MYB, decrease in CJ mRNA levels, IC50

>  <Compound>
COc1cc(-c2ccc(-c3ccc(N4CC[C@@H](NC5(C)CC5)C4)nn3)c(O)c2)cnn1

>  <Readout name>
IC50

>  <Assay value>
0.1 to 1 µM

$$$$

Give the measured IC50 of Cc1nc(-c2ccc(-c3ccc(N4CCC(NC5CCC5)C4)nn3)c(O)c2)cs1 (stereo not shown) [Compound 412] . > 10 µM

Give the measured IC50 of COc1cc(-c2ccc(-c3ccc(N4CC[C@H](NC5(C)CC5)C4)nn3)c(O)c2)cnn1 . < 0.1 µM

Give the measured IC50 of Cc1nc(-c2ccc(-c3ccc(N4CCC(NC5CCC5)C4)nn3)c(O)c2)cs1 (stereo not shown) [Compound 413] . 1 to 10 µM

Give the measured IC50 of CN([C@@H]1CCN(c2ccc(-c3ccc(-c4cn[nH]c4)cc3O)nn2)C1)C(C)(C)C . < 0.1 µM

Give the measured IC50 of Oc1cc(-c2cn[nH]c2)ccc1-c1ccc(N2CCC(NC3CC3)C2)nn1 (stereo not shown) [Compound 100] . 0.1 to 1 µM

Give the measured IC50 of Oc1cc(-c2cn[nH]c2)ccc1-c1ccc(N2CCC(NC3CC3)C2)nn1 (stereo not shown) [Compound 102] . > 10 µM

----------
- Test system: SMN2 mRNA
- Assay name: RT-qPCR splicing assay panel, SMN2 canonical junction (CJ) mRNA
- Assay type: cell-based, human
- Condition details: Homo sapiens, canonical junction (CJ) mRNA, RT-qPCR panel, Table 4A; read-out: SMN2, decrease in CJ mRNA levels, IC50
Readout name: IC50

>  <Compound>
COc1cc(-c2ccc(-c3nnc(N4CC[C@H](NC5CCC5)C4)cc3C)c(O)c2)cnn1 [Compound 450]

>  <IC50>
1000 to 10000 nM

$$$$
>  <Compound>
CCc1cc(-c2ccc(-c3ccc(N4CC[C@H](NC5CCC5)C4)nn3)c(O)c2)cnn1 [Compound 278]

>  <IC50>
1000 to 10000 nM

$$$$
>  <Compound>
Oc1cc(-c2cn[nH]c2)ccc1-c1ccc(N2CC[C@H](NC3CCC3)C2)nn1 [Compound 116]

>  <IC50>
< 100 nM

$$$$

Checklist item: IC50 tested on SMN2 mRNA, entry Cc1ncc(-c2cc(O)c(-c3ccc(N4CCC(NC5CCCCC5)C4)nn3)cc2F)s1 (centres unmarked) [Compound 410] , value? < 100 nM

----------
Item-by-item account of AC50
- System: HTT mRNA
- Assay name: RT-qPCR splicing assay, HTT canonical (CJ) and alternative (AJ) junction mRNA
- Format: cell-based, human
- Condition details: Homo sapiens, 24 h, Table 3B; A673 or K562 cells, 24 h treatment; read-out: HTT AJ (AC50, increase in AJ mRNA)

>  <Compound>
Cc1nc2cc(O)c(-c3ccc(N4CC[C@H](N(C)C(C)(C)C)C4)nn3)cc2o1

>  <Assay value>
< 100 nM

$$$$
>  <Compound>
Cc1ncc2cc(-c3ccc(N4CCC(NC(C)(C)C)C4)nn3)c(O)cc2n1 (centres unmarked)

>  <Assay value>
> 10000 nM

$$$$
>  <Compound>
Cc1nc2cc(O)c(-c3ccc(N4CCC(NC5CCC5)C4)nn3)cc2o1 (centres unmarked)

>  <Assay value>
> 10000 nM

$$$$

Give the measured AC50 of Cc1nc2cc(O)c(-c3ccc(N4CC[C@H](NC(C)(C)C(C)C)C4)nn3)cc2o1 . < 100 nM

Give the measured AC50 of CCC(C)(C)NC1CCN(c2ccc(-c3cc4oc(C)nc4cc3O)nn2)C1 (centres unmarked) . 1000 to 10000 nM

Give the measured AC50 of Cc1nc2cc(O)c(-c3cnc(N4CC[C@H](N(C)C(C)(C)C)C4)nn3)cc2o1 . 100 to 1000 nM

Give the measured AC50 of COc1cc2cc(-c3ccc(N4CCC(NC(C)(C)C)C4)nn3)c(O)cc2nn1 (centres unmarked) . 1000 to 10000 nM

Give the measured AC50 of Cc1nc2cc(O)c(-c3cnc(N4CC[C@H](NC(C)(C)C)C4)nn3)cc2o1 . 1000 to 10000 nM

----------
Item-by-item account of pIC50
- System: SMN2 mRNA
- Assay name: RT-qPCR splicing assay panel, SMN2 canonical junction (CJ) mRNA
- Format: cell-based, human
- Condition details: Homo sapiens, canonical junction (CJ) mRNA, RT-qPCR panel, Table 4A; read-out: SMN2, decrease in CJ mRNA levels, IC50
pIC50: −log10 of the molar value.

Example cases with answers are listed next.
>  <Molecule>
Oc1cc(-c2ccc(-c3ccc(N4CC[C@@H](NC5CCC5)C4)nn3)c(O)c2)cnn1 [Compound 419]

>  <Assay value>
6.00 to 7.00

$$$$
>  <Molecule>
COc1cc(-c2ccc(-c3ccc(N4CC[C@@H](NC5(C)CCC5)C4)nn3)c(O)c2)cnn1 [Compound 287]

>  <Assay value>
> 7.00

$$$$
>  <Molecule>
COc1cc(-c2ccc(-c3ccc(N4CC[C@H](NC5(C)CCC5)C4)nn3)c(O)c2)cnn1 [Compound 289]

>  <Assay value>
> 7.00

$$$$

Next, consider the following molecule.
Give the measured pIC50 of COc1cc(-c2ccc(-c3ccc(N4CCC(N[C@H]5C[C@H](O)C5)C4)nn3)c(O)c2)cnn1 (stereo partly shown) [Compound 447] . > 7.00

----------
- System: Target C mRNA
- Assay name: RT-qPCR splicing assay panel, Target C canonical junction (CJ) mRNA
- Type: cell-based, human
- Condition details: Homo sapiens, canonical junction (CJ) mRNA, RT-qPCR panel, Table 4A; read-out: Target C, decrease in CJ mRNA levels, IC50
pIC50: −log10 of the molar value.
Item-by-item account of pIC50

Example cases with answers are listed next.
>  <Molecule>
COc1cc(-c2cc(O)c(-c3ccc(N4CC[C@H](NC5CC5)C4)nn3)cc2F)cnn1

>  <pIC50>
6.00 to 7.00

$$$$
>  <Molecule>
Cc1nc2c(F)cc(-c3ccc(-c4ccc(N5CCC(NC6CCC6)C5)nn4)c(O)c3)cc2o1 (stereo not shown)

>  <pIC50>
6.00 to 7.00

$$$$
>  <Molecule>
Cc1cc(-c2ccc(-c3ccc(N4CCC(NCC5CC5)C4)nn3)c(O)c2)ncn1 (stereo not shown)

>  <pIC50>
5.00 to 6.00

$$$$
>  <Molecule>
Cc1ncc(-c2cc(O)c(-c3ccc(N4CC[C@@H](NCC5CCC5)C4)nn3)cc2F)s1

>  <pIC50>
6.00 to 7.00

$$$$
>  <Molecule>
COc1cc(-c2cc(O)c(-c3ccc(N4CCC(C)(NC5CCC5)C4)nn3)cc2F)cnn1 (stereo not shown)

>  <pIC50>
6.00 to 7.00

$$$$
>  <Molecule>
COc1cc(-c2ccc(-c3ccc(N4CC[C@@H](N(CCF)C5CCC5)C4)nn3)c(O)c2)cnn1

>  <pIC50>
< 5.00

$$$$
>  <Molecule>
COc1cc(-c2ccc(-c3ccc(N4CC[C@](C)(NCC5CC5)C4)nn3)c(O)c2)ncn1

>  <pIC50>
6.00 to 7.00

$$$$
>  <Molecule>
CN(C1CCC1)[C@H]1CCN(c2ccc(-c3cc(F)c(-c4cn[nH]c4)cc3O)nn2)C1

>  <pIC50>
> 7.00

$$$$

Give the measured pIC50 of Cc1nc(C#N)c(-c2cc(O)c(-c3ccc(N4CC[C@@H](NC5CCC5)C4)nn3)cc2F)s1 . 6.00 to 7.00

Give the measured pIC50 of Oc1cc(-c2cn[nH]c2)ccc1-c1ccc(N2CC[C@H](NC3CC3)C2)nn1 . 6.00 to 7.00

----------
Item-by-item account of AC50
- Test system: HTT mRNA
- Assay name: RT-qPCR splicing assay, HTT canonical (CJ) and alternative (AJ) junction mRNA
- Type: cell-based, human
- Condition details: Homo sapiens, 24 h, Table 3B; A673 or K562 cells, 24 h treatment; read-out: HTT AJ (AC50, increase in AJ mRNA)

Example cases with answers are listed next.
>  <Compound>
Cn1cc2cc(-c3ccc(N4CCC(NC(C)(C)C)C4)nn3)c(O)cc2n1 (centres unmarked)

>  <AC50>
1 to 10 µM

$$$$
>  <Compound>
Cc1nc2c(F)c(O)c(-c3ccc(N4CC[C@H](NC(C)(C)C)C4)nn3)cc2o1

>  <AC50>
> 10 µM

$$$$
>  <Compound>
Cn1cc2cc(-c3cnc(N4CC[C@@H](NC(C)(C)C)C4)nn3)c(O)cc2n1

>  <AC50>
1 to 10 µM

$$$$
>  <Compound>
Cn1ccc2cc(O)c(-c3ccc(N4CC[C@H](NC(C)(C)C)C4)nn3)cc2c1=O

>  <AC50>
1 to 10 µM

$$$$
>  <Compound>
Cc1nc2cc(O)c(-c3ccc(N4CC[C@@H](N(C)C(C)(C)C)C4)nn3)cc2o1

>  <AC50>
1 to 10 µM

$$$$

Give the measured AC50 of Cc1ccc2cc(-c3ccc(N4CCC(NC(C)(C)C)C4)nn3)c(O)cc2n1 (centres unmarked) . > 10 µM

Give the measured AC50 of Cc1nc2ccc(-c3ccc(N4CCC(NC(C)(C)C)C4)nn3)nc2o1 (centres unmarked) . 0.1 to 1 µM

Give the measured AC50 of Cc1nc2cc(O)c(-c3ccc(N4CCC(C)(NC(C)(C)C)C4)nn3)cc2o1 (centres unmarked) . 1 to 10 µM
